Test system: F18 Cured vaccine (MS060520HM-PCISRAF18)
Assay: Antibiotic sensitivity (Int/MIC) at Iowa State University
Type: cell-based, E. coli
Settings: Table 4, E. COLH, F18 Cured vaccine

[
  {
    "Record smiles": "CCCN1C[C@H](C)[C@@H](O)[C@](C)(O)[C@@H](CC)OC(=O)[C@H](C)[C@@H](O[C@H]2C[C@@](C)(OC)[C@@H](O)[C@H](C)O2)[C@H](C)[C@@H](O[C@@H]2O[C@H](C)C[C@H](N(C)C)[C@H]2O)[C@](C)(O)C[C@H]1C",
    "MIC": "NI/4.0000 ^"
  },
  {
    "Record smiles": "CC[C@H]1OC(=O)C[C@@H](O)[C@H](C)[C@@H](O[C@@H]2O[C@H](C)[C@@H](O)[C@H](N(C)C)[C@H]2O)[C@@H](CCN2CCCCC2)C[C@@H](C)C(=O)/C=C/C(C)=C/[C@@H]1CN1CCCCC1",
    "MIC": "NI/4.0000 ^"
  }
]

* * *

Test system: F18 Pre-Cured cells (MS112101HM-competent)
Assay: Antibiotic sensitivity (Int/MIC) at Iowa State University
Format: cell-based, E. coli
Conditions: Table 4, E. COLH

[
  {
    "Record smiles": "CC[C@H]1OC(=O)C[C@@H](O)[C@H](C)[C@@H](O[C@@H]2O[C@H](C)[C@@H](O)[C@H](N(C)C)[C@H]2O)[C@@H](CCN2CCCCC2)C[C@@H](C)C(=O)/C=C/C(C)=C/[C@@H]1CN1CCCCC1",
    "MIC": "NI/4.0000 ^"
  },
  {
    "Record smiles": "CCCN1C[C@H](C)[C@@H](O)[C@](C)(O)[C@@H](CC)OC(=O)[C@H](C)[C@@H](O[C@H]2C[C@@](C)(OC)[C@@H](O)[C@H](C)O2)[C@H](C)[C@@H](O[C@@H]2O[C@H](C)C[C@H](N(C)C)[C@H]2O)[C@](C)(O)C[C@H]1C",
    "MIC": "NI/4.0000 ^"
  }
]
